Where do the numbers come from? From patent US20220062296A1.

assay: Competitive interconversion slurry experiments between crystalline forms (relative thermodynamic stability); format: physicochemical; conditions: ambient temperature; Form E also 55° C. and 77° C.
valueType: outcome of solvent-mediated interconversion with Form A (relative thermodynamic stability)

In [3]: df
Out[3]:
                                   compound             result
0  COCc1nnc2n1Cc1c(C#Cc3cnc(OC)s3)ncn1-c1ccc(Cl)cc1-2 [Material D]  convert to Form A
1  COCc1nnc2n1Cc1c(C#Cc3cnc(OC)s3)ncn1-c1ccc(Cl)cc1-2 [Form B]  convert to Form A

###

test: Differential scanning calorimetry / thermogravimetry (DSC, TGA); assay type: physicochemical; details: 10° C./min
valueType: onset of DSC exotherm due to decomposition

>>> df
                                   compound   result
0  COCc1nnc2n1Cc1c(C#Cc3cnc(OC)s3)ncn1-c1ccc(Cl)cc1-2 [Form C]   190 °C
1  COCc1nnc2n1Cc1c(C#Cc3cnc(OC)s3)ncn1-c1ccc(Cl)cc1-2 [Form E]  ~201 °C
2  COCc1nnc2n1Cc1c(C#Cc3cnc(OC)s3)ncn1-c1ccc(Cl)cc1-2 [Material D]  ~174 °C
